From: the METLIN SMRT retention time set (Domingo-Almenara et al. 2019)

# PROTOCOL: gradient 5% acetonitrile 3 min, to 50% in 2 min, to 85% in 15 min, held 3 min, 100 µL/min
# CONDITION DETAILS: column: Zorbax Extend-C18 2.1 x 50 mm; eluents: water / acetonitrile, 0.1% formic acid
We begin with a simple list: items and their reported RP-LC retention time.
VALUE TYPE: RP-LC retention time (s)

• CCc1cccc(Nc2ncccc2S(N)(=O)=O)c1 = 889
• COc1ccc(NC(=O)N2CCN(C3=CC4=NC(C)CN4C=N3)CC2)c(C)c1 (stereo not drawn) = 649
• CCc1nc(N)n(CC(=O)NCc2ccccc2Cl)c(=O)c1C = 616
• COc1ccc(Cc2nnc(NC(=O)c3cnc4ccccc4n3)o2)cc1 = 722
• CCCn1c(=O)sc2cc(S(=O)(=O)N3CCN(C(=O)C4CCN(C(C)=O)CC4)CC3)ccc21 = 722
• CCN1CCCn2cc(S(=O)(=O)Nc3ccc(F)c(F)c3)cc2C1=O = 768
• O=C1COc2ccc(S(=O)(=O)N3CCCC3C(=O)Nc3ccc(F)c(Cl)c3)cc2N1 (stereo not drawn) = 845
• COc1cc(=O)n2c(c1C(=O)Nc1cccc(SC)c1)CCCC2 = 734

* * *

# PROTOCOL: gradient 5% acetonitrile 3 min, to 50% in 2 min, to 85% in 15 min, held 3 min, 100 µL/min
# CONDITION DETAILS: column: Zorbax Extend-C18 2.1 x 50 mm; eluents: water / acetonitrile, 0.1% formic acid
The reader will find reported RP-LC retention time values listed item by item below.
VALUE TYPE: RP-LC retention time (s)

* O=C(c1csc(S(=O)(=O)N2CCC(C(=O)N3CCc4ccccc4C3)CC2)c1)N1CCCC1 | 817
* CC(C)c1ccc(OCC(=O)Oc2ccc3c(c2)ncn3C)cc1 | 662
* CNC(=O)C1CCCN(c2nc3ncn(CC(=O)Nc4ccccc4F)c(=O)c3s2)C1 (configuration not stated) | 634
* CCCCC(=O)N1C[C@H](c2nc(-c3ccccc3)no2)[C@@H](C)C1 | 971
* Cc1ccc(S(=O)(=O)N2C(=O)CCC2C(=O)Nc2cccc(C)c2C)cc1C (configuration not stated) | 976
* CCn1cnc(S(=O)(=O)N2CCCC(C(=O)N3CCN(c4ccc(F)cc4)CC3)C2)c1 (configuration not stated) | 752
* CCOc1ccc(CNC(=O)C2CCCN(c3nn4c(=O)c5c(nc4s3)CCCC5)C2)cc1OC (configuration not stated) | 737

* * *

# PROTOCOL: gradient 5% acetonitrile 3 min, to 50% in 2 min, to 85% in 15 min, held 3 min, 100 µL/min
# CONDITION DETAILS: column: Zorbax Extend-C18 2.1 x 50 mm; eluents: water / acetonitrile, 0.1% formic acid
Listed next: entries and their corresponding RP-LC retention time.
VALUE TYPE: RP-LC retention time (s)

• Cn1ncc2c(N3CCCC3)nc(C(=O)NCc3ccc(F)cc3)nc21 = 790
• COCCn1c(SCC(=O)Nc2nc3ccccc3s2)nc2c(c1=O)SC(C)C2 (stereo not drawn) = 806
• CCOCCCNC(=O)N1[C@H]2CC[C@@H]1c1cnc(-c3ccccc3)nc1C2 = 778

* * *

# PROTOCOL: gradient 5% acetonitrile 3 min, to 50% in 2 min, to 85% in 15 min, held 3 min, 100 µL/min
# CONDITION DETAILS: column: Zorbax Extend-C18 2.1 x 50 mm; eluents: water / acetonitrile, 0.1% formic acid
RP-LC retention time vs 800 s: at or above is Condition met, below is Condition not met.

* COc1cc(CN2CCc3nc(N4CCCC4)ncc3C2)ccc1OC(C)C | Condition not met
* CC(C)NC(=O)C1=CCN(C(=O)c2ccc(F)cc2)CC1 | Condition not met
* CCCN1C(=O)COc2ccc(-c3noc(COc4ccc(F)cc4)n3)cc21 | Condition met
* O=C(c1ccc(F)cc1Cl)N1CCc2nc(-c3ccc(Cl)cc3)ncc2C1 | Condition met
* O=C(c1cccs1)N1N=C(c2ccc3c(c2)OCO3)CC1c1ccco1 (configuration not stated) | Condition met
* CCNc1nc(C)cc(N2CCN(S(=O)(=O)c3ccc(Cl)c(Cl)c3)CC2)n1 | Condition not met

* * *

Reported RP-LC retention time values follow for various compounds
# PROTOCOL: gradient 5% acetonitrile 3 min, to 50% in 2 min, to 85% in 15 min, held 3 min, 100 µL/min
# CONDITION DETAILS: column: Zorbax Extend-C18 2.1 x 50 mm; eluents: water / acetonitrile, 0.1% formic acid
VALUE TYPE: RP-LC retention time (s)

- O=C(Cc1csc2nc(-c3ccccc3)cn12)NCc1ccco1: 696
- CCc1noc(-c2cnc3nc(C)ccc3c2Nc2ccc3c(c2)OCO3)n1: 720
- O=C(CN1C(=O)CCS(=O)(=O)c2ccccc21)Nc1ccc(F)cc1: 748
- CC(=O)c1ccc(NC(=O)c2noc3c2CCCC3)cc1: 871
- Cc1cccc(N2CCN([C@H]3CS(=O)(=O)C[C@@H]3S(=O)(=O)c3ccc(F)c(C)c3)CC2)c1: 986
- Cc1ccc(-c2nc(-c3ccc4c(c3)ncn4CCN3CCCCC3)no2)s1: 646
- CN(C)c1ccc(CNC(=O)Cc2c[nH]c3ncccc23)cc1: 640
- CCN1C(=O)CN(C(=O)C2CC2)CC12CCOCC2: 584
- Cc1ccc(CN2CC(COc3cccnc3)C3(CCOCC3)C2)c(C)c1 (configuration not stated): 591
- CCOC(=O)C1CCN(C(=O)C2CCN(c3cncnc3N3CCCC3)CC2)CC1: 629
- CCn1ccc(C(=O)N2CCCN(C3=NS(=O)(=O)C(c4ccc(C)cc4)=C3C)CC2)n1: 790
- Cc1ccc(NC(=O)C2CCCN(c3ncnc4c3nc3n4CCCCC3)C2)cc1C (configuration not stated): 870
- Cc1nn(CC(=O)N2CCN(C)CC2)c(=O)c2nc(-c3ccccc3)sc12: 616
- CCC(C)(C)N=C(NC#N)Nc1cccnc1: 689
- CCn1c(=O)c(C(=O)NCCCOC(C)C)nc2cccnc21: 728
- O=C(NCCc1ccccn1)C1CCc2nc(N3CCOCC3)ncc2C1 (configuration not stated): 645
- Cc1ccc(-c2nc(C3CC(=O)N(c4ccc(F)cc4)C3)no2)cc1 (configuration not stated): 1030
- C=CCNCc1ccc(-c2cccc(C(F)(F)F)c2)o1: 714
- O=C(NCCCN1CCOCC1)c1c(O)c2cccc3c2n(c1=O)CC3: 845
- O=C(Cn1cccc1-c1nc(-c2ccc(Cl)cc2)cs1)N1CCOCC1: 1040
- O=C(NC(c1ccccc1)c1nnc(N2CCOCC2)o1)c1ccccc1F (configuration not stated): 733
- CN1CCN(CCNC(=O)c2cc(-c3ccccc3)cn2C)CC1: 600
- Cc1nc(-c2ccncc2)nc2c1CCC(=O)N2Cc1ccccn1: 559
- CCCn1c(=O)sc2cc(S(=O)(=O)N3CCC(C(=O)N4CCc5ccccc54)CC3)ccc21: 1020
- CN(C)S(=O)(=O)c1ccc(-c2nnc(C(=O)NCc3cccnc3)o2)cc1: 595
- O=C(NCc1cccc(Br)c1)c1ccc2ncnc(N3CCCC3)c2c1: 679
- COc1ccc(-c2cc3n(n2)CCCN(S(=O)(=O)c2ccc(C(C)=O)cc2)C3)cc1: 882
- Cn1nc(-c2nc(C3CC3)no2)c2c1CCN(C(=O)c1ccc(F)c(F)c1)C2: 831
- CCCCNS(=O)(=O)c1cc(-c2[nH]ncc2C(=O)N2CCCC2)oc1C: 668
- O=C(CCC1CCCC1)Nc1ccc(-c2nnc3n2CCCC3)cc1: 765
- Cc1ccc(C(=O)N2CC(c3nc(CCOCC4CC4)no3)C2)s1: 806
- CCn1ccc2sc(C)c(C(=O)NCc3cccc(F)c3)c2c1=O: 822

* * *

# PROTOCOL: gradient 5% acetonitrile 3 min, to 50% in 2 min, to 85% in 15 min, held 3 min, 100 µL/min
# CONDITION DETAILS: column: Zorbax Extend-C18 2.1 x 50 mm; eluents: water / acetonitrile, 0.1% formic acid
VALUE TYPE: RP-LC retention time (s)

• COc1ccc(Cl)cc1-c1nc(C2CC(=O)N(c3ccc(F)cc3)C2)no1 (centres undefined) = 1030
• Cc1ccc2c(Nc3ccc(Cl)cc3)c(C(=O)N3CCSCC3)cnc2n1 = 634
• Cc1ccccc1N1CCN(C(=O)c2csc(C(=O)NC3CC3)n2)CC1 = 884
• COCCn1cc2c3c(cccc31)CN(C(=O)Nc1cccc(Cl)c1)CC2 = 981
• COCCn1cc(C(=O)N2CCc3ccccc32)c2nn(-c3ccccc3)c(=O)c-2c1 = 789
• Cc1ccc(CNC(=O)CN2C(=O)CCc3cc(S(=O)(=O)N4CCCCC4C)ccc32)cc1 (centres undefined) = 916
• CCC(C(=O)NCCc1ccccc1)n1cnc2nc3c(cc2c1=O)CCCC3 (centres undefined) = 785
• O=C1CC(c2noc(-c3ccc(F)cc3)n2)CN1c1ccc(Cl)cc1 (centres undefined) = 1070
• O=C(NC1CC1)c1nnc(-c2ccc(S(=O)(=O)N3CCCCC3)cc2)o1 = 804
